Target: T1, his-tagged hTfR1 (Acro Biosystems p/n CD1-H5243) (human, UniProt P02786 89-760)
T1 construct: Bought reagent of the SPR assay
T1 sequence (P02786 89-760 limits assumed): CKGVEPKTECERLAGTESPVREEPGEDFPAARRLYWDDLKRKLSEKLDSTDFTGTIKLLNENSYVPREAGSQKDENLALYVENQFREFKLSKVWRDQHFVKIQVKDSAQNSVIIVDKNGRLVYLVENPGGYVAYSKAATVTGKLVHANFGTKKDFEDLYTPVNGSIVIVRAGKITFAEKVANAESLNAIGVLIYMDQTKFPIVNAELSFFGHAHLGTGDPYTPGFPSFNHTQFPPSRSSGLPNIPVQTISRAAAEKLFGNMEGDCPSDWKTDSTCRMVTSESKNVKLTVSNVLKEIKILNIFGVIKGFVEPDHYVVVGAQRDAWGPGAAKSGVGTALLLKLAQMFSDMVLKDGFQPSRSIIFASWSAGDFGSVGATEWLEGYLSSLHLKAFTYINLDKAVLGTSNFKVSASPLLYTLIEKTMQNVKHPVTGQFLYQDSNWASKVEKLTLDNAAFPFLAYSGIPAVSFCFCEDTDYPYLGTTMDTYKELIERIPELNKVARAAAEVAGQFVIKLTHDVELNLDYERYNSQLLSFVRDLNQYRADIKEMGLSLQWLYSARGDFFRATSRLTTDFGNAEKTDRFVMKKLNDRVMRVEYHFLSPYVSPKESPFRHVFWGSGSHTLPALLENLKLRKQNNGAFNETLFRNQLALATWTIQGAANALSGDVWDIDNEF
Assay: SPR, Biacore X100, His-tagged TfR1 captured by anti-His
Method: Samples were analyzed via Surface Plasmon Resonance (SPR) to determine kinetics against human transferrin receptor 1 (hTfR1). […] A cycle was performed for each sample concentration analyzed along with one cycle repeating one concentration for variability evaluation and 2-3 buffer cycles. Results were analyzed in Biacore Evaluation Software. […] A monovalent or kinetic fit was specified as relevant for the sample analyzed. Accuracy of the fit was evaluated and data points are excluded as applicable. […]
For each of the binders below, state its koff.
Supply the numeric figure in s⁻¹, leaving out any unit text.

Enquiry: Any idea what koff was measured for Fab0060 (Fab, V domains shown) VH: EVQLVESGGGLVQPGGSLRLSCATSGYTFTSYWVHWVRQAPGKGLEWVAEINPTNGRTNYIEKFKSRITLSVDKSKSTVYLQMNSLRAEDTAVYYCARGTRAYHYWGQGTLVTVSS VL: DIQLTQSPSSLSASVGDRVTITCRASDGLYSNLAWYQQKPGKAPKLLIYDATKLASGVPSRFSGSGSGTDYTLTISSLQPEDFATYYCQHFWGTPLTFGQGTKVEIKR ?
Return: 0.00111

Enquiry: Any idea what koff was measured for Fab0002 (Fab, V domains shown) VH: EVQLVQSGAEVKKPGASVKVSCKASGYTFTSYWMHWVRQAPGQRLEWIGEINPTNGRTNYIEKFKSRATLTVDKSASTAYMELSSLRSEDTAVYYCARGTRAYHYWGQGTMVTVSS VL: DIQMTQSPSSLSASVGDRVTITCRASDNLYSNLAWYQQKPGKSPKLLVYDATNLADGVPSRFSGSGSGTDYTLTISSLQPEDFATYYCQHFWGTPLTFGQGTKVEIKR ?
Return: 0.00499

Enquiry: Any idea what koff was measured for Fab0068 (Fab, V domains shown) VH: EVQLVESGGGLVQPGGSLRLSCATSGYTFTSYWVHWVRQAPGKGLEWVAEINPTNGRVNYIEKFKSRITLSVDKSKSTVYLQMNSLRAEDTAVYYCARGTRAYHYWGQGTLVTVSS VL: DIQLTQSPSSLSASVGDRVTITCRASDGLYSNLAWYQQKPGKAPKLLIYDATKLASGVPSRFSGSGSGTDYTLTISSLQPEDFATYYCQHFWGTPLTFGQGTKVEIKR ?
Return: 0.00113
